Hello, the source for this data is ChEMBL document CHEMBL2010784, in case you need it.

- System: Influenza A virus
- assay_overview: Antiviral activity against Influenza A virus H1N1 infected in MDCK cells assessed as inhibition of viral-induced cytopathogenicity
- Format: functional, organism-based
Activity calls are given as the source filed them. The calls are words filed in the database; no cut-off is given here.
reported_endpoint: Activity

Look over these answered cases.
C#C[C@]1(CO)O[C@@H](n2cnc3c(N)ncnc32)C[C@@H]1O    inactive
C#C[C@]1(CO)S[C@@H](n2cnc3c(N)ncnc32)C[C@@H]1O    inactive
C#C[C@]1(CO)S[C@@H](n2cnc3c(=O)[nH]c(N)nc32)C[C@@H]1O    inactive
C#C[C@]1(CO)S[C@@H](n2ccc(N)nc2=O)C[C@@H]1O    inactive

Challenge: Form field - read-out: Activity; system: Influenza A virus; submitted item: `C#C[C@]1(CO)O[C@@H](n2cnc3c(=O)[nH]c(N)nc32)C[C@@H]1O`
Response given: inactive

* * *

Measured MCC, listed per entry for reference.
- assay_overview: Cytotoxicity against human HEL cells assessed as changes in cell morphology by microscopy
- Format: cell-based

C#C[C@]1(CO)S[C@@H](n2cnc3c(N)ncnc32)C[C@@H]1O    > 100 µM
C#C[C@]1(CO)S[C@@H](n2cnc3c(=O)[nH]c(N)nc32)C[C@@H]1O    > 100 µM
C#C[C@]1(CO)S[C@@H](n2ccc(N)nc2=O)C[C@@H]1O    > 100 µM

Continue with the compound presented below.
Challenge: MCC for `Nc1nc2c(ncn2COC(CO)CO)c(=O)[nH]1` ?
Response given: > 100 µM

* * *

Some molecules, each annotated with its measured CC50 at 96 h.
- assay_overview: Cytotoxicity against human MT4 cells after 4 days by MTT assay
- Type: cell-based
- details: MT4 cells
Give just the numeric value; µM need not be written.

C#C[C@]1(CO)O[C@@H](n2cnc3c(=O)[nH]c(N)nc32)C[C@@H]1O    1.4

# next molecule below
Challenge: # get_value(readout='CC50 at 96 h', item= `C#C[C@]1(CO)O[C@@H](n2cnc3c(N)ncnc32)C[C@@H]1O` )
Response given: 16

* * *

- Test system: Human alphaherpesvirus 1
- assay_overview: Antiviral activity against HSV-1 KOS infected in HEL cells assessed as inhibition of viral-induced cytopathogenicity
- Type: functional, organism-based
- details: Human alphaherpesvirus 1, KOS
In this section we review reported EC50 values for a set of compounds.
Please reply with the bare figure in µM and do not write the unit itself.

Solved entries:
C#C[C@]1(CO)S[C@@H](n2cnc3c(N)ncnc32)C[C@@H]1O    7
C#C[C@]1(CO)S[C@@H](n2cnc3c(=O)[nH]c(N)nc32)C[C@@H]1O    3

Challenge: Under Human alphaherpesvirus 1: EC50 value of `C#C[C@]1(CO)S[C@@H](n2ccc(N)nc2=O)C[C@@H]1O` ?
Response given: 2
